System: Pseudomonas aeruginosa
Test: Antibacterial activity against Pseudomonas aeruginosa at 100 ug/ml by cup-plate method
Assay type: functional
Conditions: read-out: IZ
Label condition met when zone of inhibition at 100 µg/mL is at or above 6 mm; otherwise label condition not met.

Below, 5 compounds whose answers are already recorded.
O=C(Nc1ccc(S(=O)(=O)Nc2ccc(Cl)cc2)cc1)c1cn(CCO)c2c(cc(O)c3ncccc32)c1=O: condition not met
Cc1cccc(NS(=O)(=O)c2ccc(NC(=O)c3cn(CCO)c4c(cc(Cl)c5ncccc54)c3=O)cc2)c1: condition not met
Cc1cccc(NS(=O)(=O)c2ccc(NC(=O)c3cn(CCO)c4c(cc(O)c5ncccc54)c3=O)cc2)c1: condition met
O=C(NC(=S)Nc1ccc([N+](=O)[O-])cc1)c1cn(CCO)c2c(cc(Cl)c3ncccc32)c1=O: condition met
COc1ccccc1NC(=S)NC(=O)c1cn(CCO)c2c(cc(Cl)c3ncccc32)c1=O: condition not met

Threshold query (zone of inhibition at 100 µg/mL >= 6 mm) on Cc1ccccc1NS(=O)(=O)c1ccc(NC(=O)c2cn(CCO)c3c(cc(Cl)c4ncccc43)c2=O)cc1
condition met

Say whether O=C(Nc1ccccc1)c1cn(CCO)c2c(cc(O)c3ncccc32)c1=O shows zone of inhibition at 100 µg/mL of 6 mm or more.
condition met

* * *

System: Pseudomonas aeruginosa
Test: Antibacterial activity against Pseudomonas aeruginosa at 100 ug/ml by cup-plate method
Format: functional
Conditions: read-out: IZ
I would appreciate it if you labelled entries TRUE when zone of inhibition at 100 µg/mL is 7 mm or higher, otherwise FALSE.

Here are 3 molecules together with their reported answers.
Cc1ccc(NS(=O)(=O)c2ccc(NC(=O)c3cn(CCO)c4c(cc(O)c5ncccc54)c3=O)cc2)cc1: FALSE
O=C(O)c1cn(C2CC2)c2cc(N3CCNCC3)c(F)cc2c1=O: TRUE
O=C(NC(=S)Nc1cccc([N+](=O)[O-])c1)c1cn(CCO)c2c(cc(O)c3ncccc32)c1=O: TRUE

Consider the additional molecule presented here.
Item Cc1ccccc1NC(=S)NC(=O)c1cn(CCO)c2c(cc(Cl)c3ncccc32)c1=O with zone of inhibition at 100 µg/mL of 7 mm or above?
FALSE

* * *

Each entry below carries its recorded zone of inhibition at 100 µg/mL.
System: Pseudomonas aeruginosa
Test: Antibacterial activity against Pseudomonas aeruginosa at 100 ug/ml by cup-plate method
Format: functional
Conditions: read-out: IZ

Study these solved cases before continuing.
COc1ccccc1NS(=O)(=O)c1ccc(NC(=O)c2cn(CCO)c3c(cc(Cl)c4ncccc43)c2=O)cc1: 5 mm
O=C(NC(=S)Nc1ccccc1)c1cn(CCO)c2c(cc(Cl)c3ncccc32)c1=O: 9 mm
O=C(NC(=S)Nc1ccc(O)cc1)c1cn(CCO)c2c(cc(Cl)c3ncccc32)c1=O: 11 mm

# evaluate next
Measured zone of inhibition at 100 µg/mL (Pseudomonas aeruginosa), entry Cc1ccc(C)c(NS(=O)(=O)c2ccc(NC(=O)c3cn(CCO)c4c(cc(O)c5ncccc54)c3=O)cc2)c1 : 11 mm

* * *

Tested on: Bacillus subtilis
Test: Antibacterial activity against Bacillus subtilis at 100 ug/ml by cup plate method
Format: functional
Conditions: read-out: IZ
The compounds listed here are annotated with their zone of inhibition at 100 µg/mL.
Give just the numeric value; mm need not be written.

Consider the worked cases shown below.
O=C(NC(=S)Nc1cccc(O)c1)c1cn(CCO)c2c(cc(O)c3ncccc32)c1=O: 10
COc1ccc(NS(=O)(=O)c2ccc(NC(=O)c3cn(CCO)c4c(cc(O)c5ncccc54)c3=O)cc2)cc1: 11
O=C(NC(=S)Nc1ccc(O)cc1)c1cn(CCO)c2c(cc(O)c3ncccc32)c1=O: 7
O=C(Nc1ccccc1[N+](=O)[O-])c1cn(CCO)c2c(cc(O)c3ncccc32)c1=O: 11
Cc1ccc(NS(=O)(=O)c2ccc(NC(=O)c3cn(CCO)c4c(cc(Cl)c5ncccc54)c3=O)cc2)cc1: 6
O=C(Nc1ccc(S(=O)(=O)Nc2cccc(Cl)c2)cc1)c1cn(CCO)c2c(cc(O)c3ncccc32)c1=O: 9

Value (zone of inhibition at 100 µg/mL, Bacillus subtilis) for record Cc1ccccc1NS(=O)(=O)c1ccc(NC(=O)c2cn(CCO)c3c(cc(Cl)c4ncccc43)c2=O)cc1 = 10

The compound O=C(NC(=S)Nc1ccc([N+](=O)[O-])cc1)c1cn(CCO)c2c(cc(O)c3ncccc32)c1=O , when measured on Bacillus subtilis, yielded zone of inhibition at 100 µg/mL of 9

Kindly note: Bacillus subtilis, O=C(O)c1cn(C2CC2)c2cc(N3CCNCC3)c(F)cc2c1=O , zone of inhibition at 100 µg/mL value reported: 16

Param item: O=C(NC(=S)Nc1ccccc1[N+](=O)[O-])c1cn(CCO)c2c(cc(O)c3ncccc32)c1=O ; param system: Bacillus subtilis; output zone of inhibition at 100 µg/mL: 5
